- Test system: K562
- test: Cytotoxicity against human K562 cells after 48 hrs by SRB
- Format: functional
- condition_context: K562, 48 h
metric: GI50 (nM)

item_smiles	scale_unit	operator	meas_value
O=C(COc1ccc(/C=C2\SC(=O)NC2=O)cc1)Nc1ncc([N+](=O)[O-])s1	nM	>	100000
Cc1c(NC(=O)COc2ccc(/C=C3\SC(=O)NC3=O)cc2)c(=O)n(-c2ccccc2)n1C	nM	>	100000
O=C(COc1ccc(/C=C2\SC(=O)NC2=O)cc1)Nc1nc2ccccc2s1	nM	>	100000
O=C1NC(=O)/C(=C/c2ccc(OCC(=O)N3c4ccccc4Sc4ccccc43)cc2)S1	nM	>	100000
O=C(COc1ccc(/C=C2\SC(=O)NC2=O)cc1)Nc1ccccn1	nM	>	100000
O=C(COc1ccc(/C=C2\SC(=O)NC2=O)cc1)Nc1cccc(C(F)(F)F)c1	nM	=	191
Cc1cc(NC(=O)COc2ccc(/C=C3\SC(=O)NC3=O)cc2)no1	nM	=	2750
O=C1NC(=O)/C(=C\c2ccc(OCC(=O)N3C(=O)c4ccccc4S3(=O)=O)cc2)S1	nM	=	2690
COc1cccc2c1C(=O)c1c(O)c3c(c(O)c1C2=O)C[C@@](O)(C(=O)CO)C[C@@H]3O[C@H]1C[C@H](N)[C@H](O)[C@H](C)O1	nM	=	2570
Cc1cnc(NC(=O)COc2ccc(/C=C3\SC(=O)NC3=O)cc2)s1	nM	=	2240
CCCCC1=NC2(CCCC2)C(=O)N1C(=O)COc1ccc(/C=C2/SC(=O)NC2=O)cc1	nM	>	100000
